# Test system: Rattus norvegicus
# assay.method.text: AUClast in Sprague-Dawley rat at 2 mg/kg, iv and po
# Assay type: ADME, organism-based, Plasma
# Set-up: dose 2 mg/kg, route oral
# condition: in vivo
recorded.endpoint: AUClast

AUClast value, target or system Rattus norvegicus, for Cc1nc(S(C)(=O)=O)ccc1Oc1ncnc(OC2CCN(C(=O)OC3(C)CC3)CC2)c1F : 1220 ng·h/mL

---

# system: Glucose-dependent insulinotropic receptor (Homo sapiens) (UniProt Q8TDV5)
# Sequence (whole entry): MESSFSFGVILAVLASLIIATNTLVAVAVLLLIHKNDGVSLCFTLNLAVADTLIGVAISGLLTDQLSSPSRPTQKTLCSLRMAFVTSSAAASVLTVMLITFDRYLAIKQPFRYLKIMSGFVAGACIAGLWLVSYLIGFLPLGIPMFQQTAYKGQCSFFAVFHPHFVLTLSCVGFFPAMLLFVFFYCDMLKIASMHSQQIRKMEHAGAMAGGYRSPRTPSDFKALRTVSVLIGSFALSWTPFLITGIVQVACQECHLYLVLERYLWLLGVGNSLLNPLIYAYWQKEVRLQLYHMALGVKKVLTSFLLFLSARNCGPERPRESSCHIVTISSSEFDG
# assay.method.text: […] of human GPR119 activity by homogeneous time resolved fluorescence cyclase (cAMP) assay relative to AR231453
# Format: functional
recorded.endpoint: Efficacy (%)
Reply numerically in %, unit not repeated.

Sample answers from the record:
* Cc1nc(S(C)(=O)=O)ccc1Oc1ncnc(OC2CCN(C(=O)c3noc(C(C)C)n3)CC2)c1F | 72
* CCC(F)(F)C(=O)N1CCC(Oc2ncnc(Oc3ccc(S(C)(=O)=O)nc3C)c2F)CC1 | 85
* Cc1nc(S(C)(=O)=O)ccc1Oc1ncnc(OC2CCN(C(=O)O[C@H](C)CF)CC2)c1F | 59
* COc1c(Nc2ccc(S(C)(=O)=O)nc2C)ncnc1OC1CCN(C(=O)OC(C)C)CC1 | 75
* Cc1nc(S(C)(=O)=O)ccc1Oc1ncnc(OC2CCN(C(=O)c3nc(C(C)(C)F)no3)CC2)c1F | 74

Efficacy value, target or system Glucose-dependent insulinotropic receptor (Homo sapiens) (UniProt Q8TDV5), for Cc1nc(S(C)(=O)=O)ccc1Oc1ncnc(OC2CCN(C(=O)C3CCCC3)CC2)c1F : 87

---

This listing pairs compounds with measured log10 EC50.
# system: Glucose-dependent insulinotropic receptor (Homo sapiens, UniProt Q8TDV5)
# assay.method.text: […] of human GPR119 activity by homogeneous time resolved fluorescence cyclase (cAMP) assay
Units before log transform: nM; reported quantity: EC50; transform: log10.

Sample answers from the record:
* Cc1nc(S(C)(=O)=O)ccc1Nc1ncnc(OC2CCN(C(=O)OC(C)C)CC2)c1F | 2.12
* Cc1nc(S(C)(=O)=O)ccc1Oc1ncnc(OC2CCN(C(=O)C(F)(F)F)CC2)c1F | 2.18

Briefly, log10 EC50 measured for Cc1nc(S(C)(=O)=O)ccc1Oc1ncnc(OC2CCN(C(=O)SC3(C)CC3)CC2)c1F : 1.12

Briefly, log10 EC50 measured for Cc1nc(S(C)(=O)=O)ccc1Oc1ncnc(OC2CCN(C(=O)C3(C)CC3)CC2)c1F : 2.88

Briefly, log10 EC50 measured for Cc1nc(S(C)(=O)=O)ccc1Oc1ncnc(OC2CCN(C(=O)O[C@H](C)C(F)(F)F)CC2)c1F : 0.96

Briefly, log10 EC50 measured for Cc1nc(S(C)(=O)=O)ccc1Oc1ncnc(OC2CCN(C(=O)c3nc(C(C)(C)F)no3)CC2)c1F : 1.64

Briefly, log10 EC50 measured for CCC(F)(F)C(=O)N1CCC(Oc2ncnc(Oc3ccc(S(C)(=O)=O)nc3C)c2F)CC1 : 1.24

Briefly, log10 EC50 measured for Cc1nc(S(C)(=O)=O)ccc1Oc1ncnc(OC2CCN(C(=O)C(C)(F)F)CC2)c1F : 1.57

Briefly, log10 EC50 measured for Cc1nc(S(C)(=O)=O)ccc1Oc1ncnc(OC2CCN(C(=O)SC(C)C)CC2)c1F : 0.83

Briefly, log10 EC50 measured for Cc1nc(S(C)(=O)=O)ccc1Oc1ncnc(OC2CCN(C(=O)c3noc(C(C)(C)F)n3)CC2)c1F : 1.15

Briefly, log10 EC50 measured for Cc1nc(S(C)(=O)=O)ccc1Oc1ncnc(OC2CCN(C(=O)C(C)(C)F)CC2)c1F : 1.88

Briefly, log10 EC50 measured for Cc1nc(S(C)(=O)=O)ccc1Oc1ncnc(OC2CCN(C(=O)OC(C)(C)C)CC2)c1F : 0.90

Briefly, log10 EC50 measured for Cc1nc(S(C)(=O)=O)ccc1Oc1ncnc(OC2CCN(C(=S)OC(C)C)CC2)c1F : 1.84

Briefly, log10 EC50 measured for Cc1nc(S(C)(=O)=O)ccc1Oc1ncnc(OC2CCN(C(=O)OC(C)(C)CF)CC2)c1F : 1.30

Briefly, log10 EC50 measured for Cc1nc(S(C)(=O)=O)ccc1Oc1ncnc(OC2CCN(C(=O)OC3(C(F)(F)F)COC3)CC2)c1F : 1.47

Briefly, log10 EC50 measured for Cc1nc(S(C)(=O)=O)ccc1Oc1ncnc(OC2CCN(C(=O)O[C@@H](C)CF)CC2)c1F : 2.27

Briefly, log10 EC50 measured for Cc1nc(S(C)(=O)=O)ccc1Oc1ncnc(OC2CCN(C(=O)OC(C)(C)C#N)CC2)c1F : 1.97

Briefly, log10 EC50 measured for CCC1(OC(=O)N2CCC(Oc3ncnc(Oc4ccc(S(C)(=O)=O)nc4C)c3F)CC2)CC1 : 1.34

---

# system: Glucose-dependent insulinotropic receptor (Homo sapiens, UniProt Q8TDV5)
# assay.method.text: […] of human GPR119 activity by homogeneous time resolved fluorescence cyclase (cAMP) assay
EC50 strictly under 20 nM means 1; at 20 nM or over means -1.

- Cc1nc(S(C)(=O)=O)ccc1Oc1ncnc(OC2CCN(C(=O)OC3(C)CC3)CC2)c1F: 1
- Cc1nc(S(C)(=O)=O)ccc1Oc1ncnc(OC2CCN(C(=O)SC3CCC3)CC2)c1F: 1
- Cc1nc(S(C)(=O)=O)ccc1Oc1ncnc(OC2CCN(C(=O)C3(F)CCC3)CC2)c1F: -1
- Cc1nc(S(C)(=O)=O)ccc1Oc1ncnc(OC2CCN(C(=O)OC(C)C)CC2)c1F: -1
- Cc1nc(S(C)(=O)=O)ccc1Oc1ncnc(OC2CCN(C(=O)SC(C)(C)C)CC2)c1F: 1
- Cc1nc(S(C)(=O)=O)ccc1Oc1ncnc(OC2CCN(C(=O)c3noc(C(C)C)n3)CC2)c1F: -1

Moving on to the next compound.
In plain terms, does Cc1nc(S(C)(=O)=O)ccc1Oc1ncnc(OC2CCN(C(=O)OC3COC3)CC2)c1F come in under 20 nM for EC50?
-1

---

# assay.method.text: Stability in rat hepatocytes assessed as compound remaining after 90 mins
# Format: ADME, cell-based, Hepatocyte
# condition: read-out: Stability
recorded.endpoint: remaining at 1.5 h (%)
Reply numerically in %, unit not repeated.

Briefly, remaining at 1.5 h measured for Cc1nc(S(C)(=O)=O)ccc1Oc1ncnc(OC2CCN(C(=O)OC3(C)CC3)CC2)c1F : 51

---

# system: Glucose-dependent insulinotropic receptor (Rattus norvegicus, UniProt Q7TQN8)
# Sequence (Q7TQN8 whole entry): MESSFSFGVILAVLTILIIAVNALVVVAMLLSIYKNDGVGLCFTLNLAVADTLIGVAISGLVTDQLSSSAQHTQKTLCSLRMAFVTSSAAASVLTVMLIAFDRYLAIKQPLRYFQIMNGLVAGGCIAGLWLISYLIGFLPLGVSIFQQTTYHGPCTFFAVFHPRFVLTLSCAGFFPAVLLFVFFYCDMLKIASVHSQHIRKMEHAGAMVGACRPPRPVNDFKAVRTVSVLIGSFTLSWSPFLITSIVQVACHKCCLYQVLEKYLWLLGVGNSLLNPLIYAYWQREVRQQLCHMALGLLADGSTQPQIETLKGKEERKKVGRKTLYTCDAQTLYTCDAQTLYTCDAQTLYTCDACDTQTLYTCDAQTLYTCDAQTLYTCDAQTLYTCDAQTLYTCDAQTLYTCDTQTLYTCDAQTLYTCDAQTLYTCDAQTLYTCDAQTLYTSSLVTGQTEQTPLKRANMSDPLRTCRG
# assay.method.text: […] of rat GPR119 activity by homogeneous time resolved fluorescence cyclase (cAMP) assay
This listing pairs compounds with measured EC50.
# output: numeric value plus its unit

Sample answers from the record:
* Cc1nc(S(C)(=O)=O)ccc1Oc1ncnc(OC2CCN(C(=O)OC3CCC3)CC2)c1F | 167 nM
* Cc1nc(S(C)(=O)=O)ccc1Oc1ncnc(OC2CCN(C(=O)OC(C)C)CC2)c1F | 142 nM
* CCc1cnc(C(=O)N2CCC(Oc3ncnc(Oc4ccc(S(C)(=O)=O)nc4C)c3F)CC2)nc1 | 40.8 nM
* Cc1nc(S(C)(=O)=O)ccc1Oc1ncnc(OC2CCN(C(=O)SC3(C)CC3)CC2)c1F | 166 nM
* Cc1nc(S(C)(=O)=O)ccc1Oc1ncnc(OC2CCN(C(=O)c3ncc(Cl)cn3)CC2)c1F | 30.9 nM

Please turn your attention to the following entry.
Briefly, EC50 measured for Cc1nc(S(C)(=O)=O)ccc1Oc1ncnc(OC2CCN(C(=O)c3noc(C(C)C)n3)CC2)c1F : 176 nM

---

# system: Glucose-dependent insulinotropic receptor (Homo sapiens, UniProt Q8TDV5)
# assay.method.text: […] of human GPR119 activity by homogeneous time resolved fluorescence cyclase (cAMP) assay
# Assay type: functional
pEC50: −log10 of the molar value.
Short version: pEC50 at least 8 is 1, less is -1.

- Cc1nc(S(C)(=O)=O)ccc1Oc1ncnc(OC2CCN(C(=O)O[C@H](C)CF)CC2)c1F: -1
- CCc1cnc(C(=O)N2CCC(Oc3ncnc(Oc4ccc(S(C)(=O)=O)nc4C)c3F)CC2)nc1: 1

I'd appreciate it if you could say whether Cc1nc(S(C)(=O)=O)ccc1Oc1ncnc(OC2CCN(C(=O)C3CCCC3)CC2)c1F has pEC50 at least equal to 8.
-1

I'd appreciate it if you could say whether Cc1nc(S(C)(=O)=O)ccc1Oc1ncnc(OC2CCN(C(=O)SC3CC3)CC2)c1F has pEC50 at least equal to 8.
-1
